From: ChEMBL document CHEMBL1139192

# test-target: Protein kinase C beta type (Homo sapiens)
# Sequence (P05771 2-671 limits assumed): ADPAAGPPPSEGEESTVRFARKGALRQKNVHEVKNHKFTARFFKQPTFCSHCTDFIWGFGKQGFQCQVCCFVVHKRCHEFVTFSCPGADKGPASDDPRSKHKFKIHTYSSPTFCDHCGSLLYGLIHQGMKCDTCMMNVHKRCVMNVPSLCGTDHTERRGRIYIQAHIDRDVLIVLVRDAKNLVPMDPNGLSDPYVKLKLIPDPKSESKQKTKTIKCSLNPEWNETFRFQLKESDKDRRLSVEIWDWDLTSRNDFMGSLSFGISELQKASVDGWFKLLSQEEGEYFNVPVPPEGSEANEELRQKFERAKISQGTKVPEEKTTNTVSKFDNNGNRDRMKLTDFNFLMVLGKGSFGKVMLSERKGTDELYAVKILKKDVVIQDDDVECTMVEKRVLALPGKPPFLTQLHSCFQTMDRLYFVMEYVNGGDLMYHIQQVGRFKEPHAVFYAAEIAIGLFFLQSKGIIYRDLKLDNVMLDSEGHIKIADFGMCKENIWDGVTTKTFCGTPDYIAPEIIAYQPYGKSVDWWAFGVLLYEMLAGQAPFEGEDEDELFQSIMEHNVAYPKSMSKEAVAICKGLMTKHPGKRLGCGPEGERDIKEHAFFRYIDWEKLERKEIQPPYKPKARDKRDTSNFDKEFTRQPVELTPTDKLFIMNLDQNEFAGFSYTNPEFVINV
# experiment: Residual activity of human PKCbeta2 at 1 uM relative to control
test-readout: residual activity (%)

O=C1NC(=O)C2=C1c1cn(c3ccccc13)CCCc1ccc(c(N3CCCC3)n1)CCCn1cc2c2ccccc21 77
CN(C)c1nc2ccc1CCCn1cc(c3ccccc31)C1=C(C(=O)NC1=O)c1cn(c3ccccc13)CC2 64
O=C1NC(=O)C2=C1c1cn(c3ccccc13)CCCc1cc(nc(N3CCCC3)c1)CCCn1cc2c2ccccc21 74
CN(C)c1cc2cc(n1)CCCn1cc(c3ccccc31)C1=C(C(=O)NC1=O)c1cn(c3ccccc13)CCC2 68
